test: Test 3 stability data under −20° C. for 6 months (liquid chromatography); type: physicochemical; settings: 2 months, in % (unit assumed)

compound	Major peak
CCCCCCOC(=O)/N=C(/N)c1ccc(NCc2nc3cc(C(=O)N(CCC(=O)OCC)c4ccccn4)ccc3n2C)cc1.CS(=O)(=O)O [Crystal form N]	99.726
CCCCCCOC(=O)/N=C(/N)c1ccc(NCc2nc3cc(C(=O)N(CCC(=O)OCC)c4ccccn4)ccc3n2C)cc1.CS(=O)(=O)O [Crystal form M]	99.728
CCCCCCOC(=O)/N=C(/N)c1ccc(NCc2nc3cc(C(=O)N(CCC(=O)OCC)c4ccccn4)ccc3n2C)cc1.CS(=O)(=O)O [Semihydrate crystal form]	99.833
CCCCCCOC(=O)/N=C(/N)c1ccc(NCc2nc3cc(C(=O)N(CCC(=O)OCC)c4ccccn4)ccc3n2C)cc1.CS(=O)(=O)O [Crystal form II]	99.633
CCCCCCOC(=O)/N=C(/N)c1ccc(NCc2nc3cc(C(=O)N(CCC(=O)OCC)c4ccccn4)ccc3n2C)cc1.CS(=O)(=O)O [Crystal form I]	99.694

###

assay: Test 1 stability data under 25° C. for 6 months (liquid chromatography); assay type: physicochemical; settings: 25° C., 5 months; in % (unit assumed)
readout: Major peak

compound	readout	obs value
CCCCCCOC(=O)/N=C(/N)c1ccc(NCc2nc3cc(C(=O)N(CCC(=O)OCC)c4ccccn4)ccc3n2C)cc1.CS(=O)(=O)O [Crystal form N]	Major peak	99.572
CCCCCCOC(=O)/N=C(/N)c1ccc(NCc2nc3cc(C(=O)N(CCC(=O)OCC)c4ccccn4)ccc3n2C)cc1.CS(=O)(=O)O [Crystal form I]	Major peak	99.309
CCCCCCOC(=O)/N=C(/N)c1ccc(NCc2nc3cc(C(=O)N(CCC(=O)OCC)c4ccccn4)ccc3n2C)cc1.CS(=O)(=O)O [Crystal form M]	Major peak	99.574
CCCCCCOC(=O)/N=C(/N)c1ccc(NCc2nc3cc(C(=O)N(CCC(=O)OCC)c4ccccn4)ccc3n2C)cc1.CS(=O)(=O)O [Crystal form II]	Major peak	99.029
CCCCCCOC(=O)/N=C(/N)c1ccc(NCc2nc3cc(C(=O)N(CCC(=O)OCC)c4ccccn4)ccc3n2C)cc1.CS(=O)(=O)O [Semihydrate crystal form]	Major peak	99.334

###

Major peak for assorted compounds
assay: Test 2 stability data under 5° C. for 6 months (liquid chromatography); assay type: physicochemical; conditions: 5° C., 0 month; in % (unit assumed)

compound	Major peak
CCCCCCOC(=O)/N=C(/N)c1ccc(NCc2nc3cc(C(=O)N(CCC(=O)OCC)c4ccccn4)ccc3n2C)cc1.CS(=O)(=O)O [Crystal form II]	99.631
CCCCCCOC(=O)/N=C(/N)c1ccc(NCc2nc3cc(C(=O)N(CCC(=O)OCC)c4ccccn4)ccc3n2C)cc1.CS(=O)(=O)O [Crystal form M]	99.654
CCCCCCOC(=O)/N=C(/N)c1ccc(NCc2nc3cc(C(=O)N(CCC(=O)OCC)c4ccccn4)ccc3n2C)cc1.CS(=O)(=O)O [Crystal form N]	99.660
CCCCCCOC(=O)/N=C(/N)c1ccc(NCc2nc3cc(C(=O)N(CCC(=O)OCC)c4ccccn4)ccc3n2C)cc1.CS(=O)(=O)O [Crystal form I]	99.676
CCCCCCOC(=O)/N=C(/N)c1ccc(NCc2nc3cc(C(=O)N(CCC(=O)OCC)c4ccccn4)ccc3n2C)cc1.CS(=O)(=O)O [Semihydrate crystal form]	99.828
